ASSAY DETAILS: growth suppression of yeast trafficking mutant, preliminary HTS, modulators of trafficking downstream of Golgi apparatus project, 1536-format plate, OD 615 nm (AID 637); further: test concentration not given here
CONDITION INFO: yeast transport mutant growth, absorbance 615 nm, 18 h; hits give high values
For each entry below, report its inhibition value.
Please state the figure in %; there is no need to write the unit.

Answer with the recorded inhibition for the compound listed here: CC1CCC2C(C1)c1sc(=O)[nH]c1SC2(C)C (stereo unspecified) 13.2

Answer with the recorded inhibition for the compound listed here: CCC(=O)c1ccc(OCC(O)CN2CCN(S(=O)(=O)N3CCCCC3)CC2)cc1 (stereo unspecified) 3.44

Answer with the recorded inhibition for the compound listed here: `COC(=O)[C@H](C)NC(=O)Nc1cc(OC)ccc1OC` -0.48

Answer with the recorded inhibition for the compound listed here: `CCCCNC(=O)c1nc2ncc(Br)cn2n1` -2.3

Answer with the recorded inhibition for the compound listed here: `C=CCOc1nc(N2CCCC2)nc(N2CCCC2)n1` -2

Answer with the recorded inhibition for the compound listed here: `Cc1nc2ncnn2c(N2CCC(C(=O)NC3CCCC3)CC2)c1Cc1ccccc1` -4.76
